Assay: chemical genetic growth profiling, strain panel (AID 1159580);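 note: tested at 20 µM; growth read once vehicle control cultures reached saturation at 30 °C; lower values mean less growth of the strain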
Details: S. cerevisiae deletion strains, growth OD, locus YER167W, strain BCK2
About 2,000 (36%) of roughly 5,500 compounds were called active. About 18% were inconclusive and are not listed. Cut-off read from the data, not from the text of the source: active = normalized growth mostly below about 0.91 (no sharp cut-off); inconclusive = no clear call, values can overlap the other calls; inactive = mostly above about 0.92. Some of the results follow.
Would you mind answering with one of these outcomes? True for active, False for inactive

{"MOLECULE": "COC(=O)[C@H]1[C@H]2C[C@H]3c4[nH]c5ccccc5c4CCN3C[C@H]2CC[C@@H]1O", "CATEGORY_LABEL": "False"}
{"MOLECULE": "O=C(O)C1C(O)CCC2CN3CCc4c([nH]c5ccccc45)C3CC21 (stereo not given)", "CATEGORY_LABEL": "False"}
{"MOLECULE": "COC(=O)C1[C@H]2C[C@H]3c4[nH]c5ccccc5c4CCN3C[C@@H]2CC[C@@H]1O (stereo not given in full)", "CATEGORY_LABEL": "False"}
{"MOLECULE": "COc1ccc(-c2coc3c(OC)c(O)ccc3c2=O)cc1", "CATEGORY_LABEL": "False"}
{"MOLECULE": "COc1ccc(-c2coc3c(O)c(OC)ccc3c2=O)cc1", "CATEGORY_LABEL": "True"}
{"MOLECULE": "NC(=O)N1c2ccccc2CC(=O)c2ccccc21", "CATEGORY_LABEL": "False"}

Fill in: this test's call for COc1ccc2c(c1)OC[C@@H](Cc1ccc(OC)c(OC)c1)[C@H]2O is ___
False

Quick one: COc1cc(OC)c2c(c1)O[C@H](c1ccc(OC)c(OC)c1)[C@@H](O)C2
False

Quick one: COc1ccc2c(c1)OC[C@@H](Cc1ccc(OC)c(OC)c1)[C@@H]2O
False

Quick one: CNc1ccccc1C(=O)N1CCc2c([nH]c3ccccc23)C1=O
False
